Tested on: ddY strain male mice
Experiment: Acute toxicity (MLD, Minimum Lethal Dose)
Type: in vivo
Details: i.p., 7 days observation
Method: The test compound was orally and intraperitoneally administered to ddY strain male mice weighing 20 to 25 g. MLD (Minimum Lethal Dose) was determined by observing the mortality for 7 days after the administration.
Measured endpoint: MLD (Minimum Lethal Dose) (mg/kg)
Unit mg/kg implied. Number only.

Past entries and their recorded results:
Molecule	MLD (Minimum Lethal Dose) / mg/kg
CCCCn1c(=O)cc(C(=O)O[C@H]2C[C@H]3CC[C@@H](C2)N3C)c2ccccc21	100
CC(C)Cn1c(=O)cc(C(=O)O[C@H]2C[C@H]3CC[C@@H](C2)N3C)c2ccccc21 [Compound 14Sa]	50
CCCCn1c(=O)cc(C(=O)N[C@@H]2C[C@H]3CC[C@@H](C2)N3C)c2ccccc21	100

In the following, a different molecule is considered.
Briefly, MLD (Minimum Lethal Dose) measured for CCCCn1c(=O)c(CC)c(C(=O)O[C@H]2C[C@H]3CC[C@@H](C2)N3C)c2ccccc21 [Compound 20Sa] : 100

* * *

test system: ddY strain male mice; assay: Acute toxicity (MLD, Minimum Lethal Dose); type: in vivo; conditions: p.o., 7 days observation
Recorded MLD (Minimum Lethal Dose) values for a group of molecules are listed next.
Reply numerically in mg/kg, unit not repeated.

The molecule CC(C)Cn1c(=O)cc(C(=O)O[C@H]2C[C@H]3CC[C@@H](C2)N3C)c2ccccc21 [Compound 14Sa] , when measured on ddY strain male mice, yielded MLD (Minimum Lethal Dose) of 200

Note to self: MLD (Minimum Lethal Dose) of CC(C)CCn1c(=O)cc(C(=O)O[C@H]2C[C@H]3CC[C@@H](C2)N3C)c2ccccc21 [Compound 15Sa] with ddY strain male mice was 300

* * *

tested on: ddY strain male mice; experiment: Acute toxicity (MLD, Minimum Lethal Dose); assay type: in vivo; details: p.o., 7 days observation
Below, each entry is listed alongside its reported MLD (Minimum Lethal Dose).
All answers are understood in mg/kg, so give the number only.

Molecule	MLD (Minimum Lethal Dose) (mg/kg)
CCCCn1c(=O)c(CC)c(C(=O)O[C@H]2C[C@H]3CC[C@@H](C2)N3C)c2ccccc21 [Compound 20Sa]	200

Kindly consider the entry below.
Record summary for CC(C)n1c(=O)cc(C(=O)O[C@H]2C[C@H]3CC[C@@H](C2)N3C)c2ccccc21 [Compound 3Sa] : reported MLD (Minimum Lethal Dose) = 200

* * *

system: ddY strain male mice; assay: Acute toxicity (MLD, Minimum Lethal Dose); format: in vivo; details: i.p., 7 days observation
Listed compounds paired with reported MLD (Minimum Lethal Dose)

Recorded results for 5 compounds are shown here.
Compound	Measured endpoint	Value observed
CC(C)n1c(=O)cc(C(=O)O[C@H]2C[C@H]3CC[C@@H](C2)N3C)c2ccccc21	MLD (Minimum Lethal Dose)	100 mg/kg
CN1[C@@H]2CC[C@H]1C[C@@H](NC(=O)c1c(O)c3ccccc3n(-c3ccccc3)c1=O)C2 [Compound 30Sa]	MLD (Minimum Lethal Dose)	100 mg/kg
CCCCn1c(=O)c(C(=O)N[C@H]2C[C@H]3CC[C@@H](C2)N3C)c(O)c2ccccc21 [Compound 11Sa]	MLD (Minimum Lethal Dose)	> 100 mg/kg
CN1[C@@H]2CC[C@H]1C[C@@H](NC(=O)c1cc(=O)n(C)c3ccccc13)C2	MLD (Minimum Lethal Dose)	> 100 mg/kg
CN1[C@@H]2CC[C@H]1C[C@@H](OC(=O)c1cc(=O)n(-c3ccccc3)c3ccccc13)C2 [Compound 19Sa]	MLD (Minimum Lethal Dose)	100 mg/kg

Sure, the documented MLD (Minimum Lethal Dose) for CCCCn1c(=O)cc(C(=O)N[C@H]2C[C@H]3CCC[C@@H](C2)N3C)c2ccccc21 [Compound 10Sa] is 100 mg/kg

The compound listed as CCCCn1c(=O)c(C(=O)N[C@H]2C[C@H]3CC[C@@H](C2)N3C)c(O)c2cccnc21 [Compound 32Sa] has a reported MLD (Minimum Lethal Dose) of 100 mg/kg

Given item CCCCCn1c(=O)cc(C(=O)O[C@H]2C[C@H]3CC[C@@H](C2)N3C)c2ccccc21 [Compound 16Sa] , the value recorded as its MLD (Minimum Lethal Dose) is 100 mg/kg

For this compound ( `CCCCn1c(=O)cc(C(=O)N[C@H]2C[C@H]3CC[C@@H](C2)N3C)c2ccccc21` ), measured MLD (Minimum Lethal Dose) is > 100 mg/kg

Looking up CCCCn1c(=O)c(O)c(C(=O)N[C@H]2C[C@H]3CC[C@@H](C2)N3C)c2ccccc21 [Compound 29Sa] , I found its MLD (Minimum Lethal Dose) recorded as > 100 mg/kg

* * *

test system: ddY strain male mice; assay: Acute toxicity (MLD, Minimum Lethal Dose); assay type: in vivo; conditions: p.o., 7 days observation
Measured endpoint: MLD (Minimum Lethal Dose) (mg/kg)
Hi! Could you send only the number? It should be in mg/kg, unit omitted.

Worked set:
Compound	MLD (Minimum Lethal Dose) / mg/kg
CCn1c(=O)cc(C(=O)O[C@H]2C[C@H]3CC[C@@H](C2)N3C)c2ccccc21 [Compound 13Sa]	200
CN1[C@@H]2CC[C@H]1C[C@@H](OC(=O)c1cc(=O)n(-c3ccccc3)c3ccccc13)C2 [Compound 19Sa]	200
CCCCn1c(=O)cc(C(=O)O[C@H]2C[C@H]3CC[C@@H](C2)N3C)c2ccccc21 [Compound 1Sa]	200
CCCCn1c(=O)cc(C(=O)N[C@H]2C[C@H]3CCC[C@@H](C2)N3C)c2ccccc21 [Compound 10Sa]	300
CCCn1c(=O)cc(C(=O)O[C@H]2C[C@H]3CC[C@@H](C2)N3C)c2ccccc21 [Compound 2Sa]	200

Now for a further compound.
Form: compound = CCCCCn1c(=O)cc(C(=O)O[C@H]2C[C@H]3CC[C@@H](C2)N3C)c2ccccc21 [Compound 16Sa] ; MLD (Minimum Lethal Dose) = 300
